ASSAY EXPLANATION: Stability of blank-LNP at 2-8° C. (particle size, PDI)
Type: physicochemical
CONDITIONS: blank-LNP 48/40.5/10/1.5 mol %, T = 0
Readings of Size, T = 0 for the listed molecules
Give me the value, and tack the unit on after it.

Worked cases, answers included:
{"MOLECULE": "CCCCCCCCCOC(=O)CCCCCCCOc1ccc(OCCCCCCCC(=O)OC(CCCCCCCC)CCCCCCCC)c(COC(=O)CCCN(C)C)c1 [Lipid #5]", "MEAS VALUE": "91 nm"}
{"MOLECULE": "CCCCCCCCCOC(=O)CCCCCCCOc1ccc(OCCCCCCCC(=O)OCCCCCCCCC)c(COC(=O)CCCN(C)C)c1 [Lipid #2]", "MEAS VALUE": "120 nm"}
{"MOLECULE": "CCCCCCCCCCC(CCCCCCCCCC)C(=O)OCCCCCCOc1ccc(OCCCCCCOC(=O)C(CCCCCCCCCC)CCCCCCCCCC)c(COC(=O)CCCN(C)C)c1 [Lipid #8]", "MEAS VALUE": "86 nm"}

Task item: Dear colleague, I am looking for the recorded Size, T = 0 of the following molecule: CCCCCCCCOC/C=C\COC(=O)CCCCCCCCC(CCCCCCCCC(=O)OC(CCCCCCCC)CCCCCCCC)OC(=O)CCCN(C)C (stereo not shown) [Lipid #12]
Reply: 85 nm

###

ASSAY EXPLANATION: Stability of blank-LNP at 2-8° C. (particle size, PDI)
Assay type: physicochemical
CONDITIONS: blank-LNP 48/40.5/10/1.5 mol %, 1 month
Readings of Change in size (nm) vs. T0, T = 1 month for the listed compounds

Worked cases, answers included:
{"COMPOUND": "CCCCCCCCOC/C=C\\COC(=O)CCCCCCCCC(CCCCCCCCC(=O)OC(CCCCCCCC)CCCCCCCC)OC(=O)CCCN(C)C (centres unmarked) [Lipid #12]", "Change in size (nm) vs. T0, T = 1 month": "+12 nm"}
{"COMPOUND": "CCCCCCOCCC/C=C/COC(=O)CCCCCCCCC(CCCCCCCCC(=O)OC/C=C/CCCOCCCCCC)OC(=O)CCCN(C)C [Lipid #11]", "Change in size (nm) vs. T0, T = 1 month": "+59 nm"}
{"COMPOUND": "CC/C=C/CCCC(CCC/C=C/CC)OC(=O)CCCCCCCC(CCCCCCCC(=O)OC/C=C/CCCCCC)COC(=O)CCCN(C)C (centres unmarked) [Lipid #10]", "Change in size (nm) vs. T0, T = 1 month": "+29 nm"}

Turning to the following compound.
Task item: Dear colleague, I am looking for the recorded Change in size (nm) vs. T0, T = 1 month of the following compound: CCCCCC/C=C/COC(=O)CCCCCCCCC(CCCCCCCCC(=O)OC/C=C/CCCCCC)OC(=O)CCCN(C)C [Lipid #9]
Reply: +22 nm

###

Readings of Blank-LNP Size for the listed compounds
ASSAY EXPLANATION: Particle size and polydispersity index (PDI) by Dynamic Light Scattering
Format: physicochemical
CONDITIONS: blank-LNP; 48/40.5/10/1.5 mol % ionizable lipid/cholesterol/DSPC/DMG-PEG
Give me the value, and tack the unit on after it.

Worked cases, answers included:
{"COMPOUND": "CCCCCCCCCCC(CCCCCCCCCC)C(=O)OCCCCCCOc1ccc(OCCCCCCOC(=O)C(CCCCCCCCCC)CCCCCCCCCC)c(COC(=O)CCCN(C)C)c1", "Blank-LNP Size": "86 nm"}
{"COMPOUND": "CCCCCCCCCOC(=O)CCCCCCCOc1ccc(OCCCCCCCC(=O)OCCCCCCCCC)c(COC(=O)CCCN(C)C)c1", "Blank-LNP Size": "120 nm"}
{"COMPOUND": "CCCCCCCCOC/C=C\\COC(=O)CCCCCCCCC(CCCCCCCCC(=O)OC(CCCCCCCC)CCCCCCCC)OC(=O)CCCN(C)C (centres unmarked)", "Blank-LNP Size": "85 nm"}

Task item: Dear colleague, I am looking for the recorded Blank-LNP Size of the following compound: "CCCCCCCCCOC(=O)CCCCCCCOc1ccc(OCCCCCCCC(=O)OC(CCCCCCCC)CCCCCCCC)c(COC(=O)CCCN(C)C)c1"
Reply: 91 nm

Task item: Dear colleague, I am looking for the recorded Blank-LNP Size of the following compound: CC/C=C/CCCC(CCC/C=C/CC)OC(=O)CCCCCCCC(CCCCCCCC(=O)OC/C=C/CCCCCC)COC(=O)CCCN(C)C (centres unmarked)
Reply: 91 nm

Task item: Dear colleague, I am looking for the recorded Blank-LNP Size of the following compound: "CCCCCCOCCC/C=C/COC(=O)CCCCCCCCC(CCCCCCCCC(=O)OC/C=C/CCCOCCCCCC)OC(=O)CCCN(C)C"
Reply: 165 nm

Task item: Dear colleague, I am looking for the recorded Blank-LNP Size of the following compound: "CCCCCCCCCOC(=O)CCCCCCCOc1ccc(OCCCCCCCC(=O)OC(CCCCCCCC)CCCCCCCC)cc1COC(=O)CCCN(C)C"
Reply: 88 nm

Task item: Dear colleague, I am looking for the recorded Blank-LNP Size of the following compound: "CCCCCC/C=C/COC(=O)CCCCCCCCC(CCCCCCCCC(=O)OC/C=C/CCCCCC)OC(=O)CCCN(C)C"
Reply: 207 nm
